Experimental system: Cytochrome P450 2C19 (Homo sapiens)
Run description: blockers of cytochrome P450 2C19 activity – biochemical, luminescence, ADME assay, primary screen (AID 778)
Conditions: CYP2C19 Supersomes, luciferin-H EGE luminescence, 30 min; at 5 µM
In all, about 96,000 compounds went through this assay and about 20,000 (21%) were called active.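 The calls were made as follows: active = CYP2C19 inhibition above a set limit at 5 µM in the primary screen (cut at about 50% in these data); inactive = the rest.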 Not all results are given here.
The reply should name one outcome from Y = active, N = inactive

Q: Identify the outcome logged in this assay for the compound shown: NS(=O)(=O)c1cccnc1Nc1cccc(Cl)c1
A: N

Q: Consider next the compound CNC(=O)c1ccc2nc(NC(C)=O)sc2c1 in the same way.
A: N

Q: Consider next the compound COC(=O)c1ccc(NC(=O)C(C)N2C(=O)c3ccccc3C2=O)cc1 (stereo not given) in the same way.
A: N

Q: Consider next the compound C=CCN1C(=O)C(Cc2cccc(Cl)c2)S/C1=N/N=C/c1ccco1 (stereo not given) in the same way.
A: N

Q: Consider next the compound COc1cccc(-n2c(Cc3cc(=O)[nH]c(=O)[nH]3)nnc2SCC(=O)Nc2ccccc2)c1 in the same way.
A: N

Q: Consider next the compound COCCCNC(=O)C1CC(=O)N(c2ccc(C)cc2)C1 (stereo not given) in the same way.
A: N

Q: Consider next the compound CC(=O)N1CSCC1C(=O)O (stereo not given) in the same way.
A: N

Q: Consider next the compound CCOC(=O)N1CCN(C(c2cccnc2)c2ccc3cccnc3c2O)CC1 (stereo not given) in the same way.
A: N

Q: Consider next the compound CCOC(=O)c1nnn(-c2nonc2-n2cccc2)c1CN1CCOCC1 in the same way.
A: N

Q: Consider next the compound CCOC(=O)C1=C(c2ccccc2)N=C2SCC(=O)N2C1c1ccc(O)c(OC)c1 (stereo not given) in the same way.
A: Y

Q: Consider next the compound CC(C)(C)NC(=O)COc1ccc(CNc2ccc3[nH]c(=O)[nH]c3c2)cc1 in the same way.
A: N

Q: Consider next the compound CC(=NCc1ccco1)C1=C(O)c2ccccc2C1=O in the same way.
A: Y

Q: Consider next the compound N#C/C(=C/c1ccc(Cl)cc1)NC(=O)c1ccccc1 in the same way.
A: N

Q: Consider next the compound O=C1c2cccnc2C(Nc2ccc(S(=O)(=O)N3CCCCCC3)cc2)N1Cc1ccccc1 (stereo not given) in the same way.
A: N

Q: Consider next the compound CCCNC(=O)C1CC(=O)N(c2ccc(OCC(=O)Nc3cccc(C)c3C)cc2)C1 (stereo not given) in the same way.
A: N

Q: Consider next the compound COc1ccc(Cl)cc1NC(=O)C1CC(=O)N(c2ccc(F)cc2)C1 (stereo not given) in the same way.
A: Y

Q: Consider next the compound CCOC(=O)c1nnn(-c2nonc2-n2cccc2)c1CN1CCC(C(=O)OCC)CC1 in the same way.
A: Y

Q: Consider next the compound CC(=O)Nc1ccc(S(=O)(=O)NCCc2ccccc2)cc1 in the same way.
A: Y

Q: Consider next the compound O=C(COc1ccc(Cl)cc1)N1CCN(S(=O)(=O)c2ccc(Cl)cc2)CC1 in the same way.
A: N

Q: Consider next the compound CSc1cccc(NC(=O)CSc2ccccc2)c1 in the same way.
A: Y
